Field: IC50. Provide a value for each of the molecules that follow.
Test system: OVCAR-3
experiment description: Cytotoxicity against human OVCAR-3 cells assessed as inhibition of cell growth incubated for 48 hrs by MTT assay
Format: functional, cell-based
condition summary: OVCAR-3, 48 h
Write down the numeric answer in µM and omit the unit.

Name the recorded IC50 for `C#CCCC1(CCC(=O)NCCCc2ccc(OCC)c(-c3ccc(O)c(CC=C)c3)c2)N=N1` .
30

IC50 for `C#CCCC1(CCC(=O)NCCCc2cc(-c3cc(CC=C)ccc3OCC)ccc2O)N=N1` ?
50

Please look up its IC50: `C=CCc1ccc(OCC)c(-c2ccc(O)c(CC=C)c2)c1`
37

Fill in the blank: the reported IC50 of `C=CCc1ccc(O)c(-c2ccc(O)c(CC=C)c2)c1` is ____.
51

----------
System: SK-OV-3
experiment description: Cytotoxicity against human SK-OV-3 cells assessed as inhibition of cell growth incubated for 48 hrs by MTT assay
Type: functional, cell-based
condition summary: SK-OV-3, 48 h
Record form. Attribute: pIC50. Fill in for each entry.
FYI, pIC50 means -log10 of a concentration in mol per litre.

# pIC50 lookup, item `C#CCCC1(CCC(=O)NCCCc2ccc(OCC)c(-c3ccc(O)c(CC=C)c3)c2)N=N1`
4.41

Field request: pIC50 | item: `C=CCc1ccc(OCC)c(-c2ccc(O)c(CC=C)c2)c1`
4.37

Value lookup for pIC50; key = `C#CCCC1(CCC(=O)NCCCc2cc(-c3cc(CC=C)ccc3OCC)ccc2O)N=N1`
4.36

What pIC50 value was documented for this molecule, `C=CCc1ccc(O)c(-c2ccc(O)c(CC=C)c2)c1` ?
4.32
